experiment: Plasma pharmacokinetics of SHR9146 in mice (LC-MS/MS, non-compartmental analysis); assay type: in vivo, ICR mice; details: male, ICR, mouse, plasma, po, 40 mg/kg, 40 mg/kg i.g. single dose; male mice; plasma; read-out: Tmax
assay metric: Tmax (h)
# value in h; strip the unit string

According to the records, this compound OCCn1cc(-c2ccc(N3CCC([C@H]4c5c(F)cccc5-c5cncn54)CC3)cc2)cn1 displays Tmax of 1.33

* * *

experiment: Plasma pharmacokinetics of SHR9146 in mice (LC-MS/MS, non-compartmental analysis); assay type: in vivo, ICR mice; details: both sexes, ICR, mouse, plasma, po, after oral gavage; mouse plasma; read-out: mean Tmax, range over oral doses
assay metric: Tmax

Tmax reported for this molecule OCCn1cc(-c2ccc(N3CCC([C@H]4c5c(F)cccc5-c5cncn54)CC3)cc2)cn1 : 0.458 to 1.58 h

Data provenance is paper PMC10410440.
